Collected IC50 values appear next to each entry.
# TARGET: Recombinant human TPH1 (MBP tagged) (Homo sapiens, UniProt P17752)
# Construct: cloning full length human TPH1 cDNA in to a bacterial pMAL-c5E expression vector; made in house; host or cells: E. coli BL21 (DE3)
# PROTOCOL: TPH1 in vitro inhibition assay (kinetic fluorescence)
# Assay type: biochemical
# REPORTED CONDITIONS: read-out: TPH1 Range (TPH1 inhibition IC50)

Known results for compounds:
- COMPOUND: "CCN(CC)C(=O)c1cccc(-c2cc(Cl)ccc2[C@@H](Oc2cc(N3CCC4(CC3)CN[C@H](C(=O)O)C4)nc(N)n2)C(F)(F)F)c1 [Example 34co]"
  RESULT VALUE: "50 to 300 nM"
- COMPOUND: "Nc1nc(O[C@H](c2ccc(Cl)cc2-n2ccc(C3CC3)n2)C(F)(F)F)cc(N2CCC3(CC2)CN[C@H](C(=O)O)C3)n1 [Example 10r]"
  RESULT VALUE: "< 50 nM"
- COMPOUND: "Cc1ccn(-c2ccc(C(=O)O)cc2[C@@H](Oc2cc(N3CCC4(CC3)CN[C@H](C(=O)O)C4)nc(N)n2)C(F)(F)F)n1 [Example 24]"
  RESULT VALUE: "50 to 300 nM"
- COMPOUND: "COc1cc(F)cc(-c2ccc([C@@H](Oc3cc(N4CCC5(CC4)CN[C@H](C(=O)O)C5)nc(N)n3)C(F)(F)F)cc2)c1 [Example 55ao]"
  RESULT VALUE: "50 to 300 nM"
- COMPOUND: "Cc1cccc(-c2ccc([C@@H](Oc3cc(N4CCC5(CC4)CN[C@H](C(=O)O)C5)nc(N)n3)C(F)(F)F)cc2)c1 [Example 55cx]"
  RESULT VALUE: "300 to 3000 nM"

# ---- query compound ----
Item CC(C)c1ccn(-c2cc(Cl)ccc2[C@@H](Oc2cc(N3CCC4(CC3)CN[C@H](C(=O)O)C4)nc(N)n2)C(F)(F)F)n1 [Example 10q] has what recorded IC50? < 50 nM

---

# TARGET: Recombinant human TPH1 (MBP tagged) (Homo sapiens, UniProt P17752)
# Construct: cloning full length human TPH1 cDNA in to a bacterial pMAL-c5E expression vector; made in house; host or cells: E. coli BL21 (DE3)
# PROTOCOL: TPH1 in vitro inhibition assay (kinetic fluorescence)
# Format: biochemical
# REPORTED CONDITIONS: read-out: TPH1 Range (TPH1 inhibition IC50)
QUANTITY MEASURED: IC50

Reference set (2 entries):
- COMPOUND: "Cc1ccn(-c2cc(Br)ccc2[C@@H](Oc2cc(N3CCC4(CC3)CN[C@H](C(=O)O)C4)nc(N)n2)C(F)(F)F)n1 [Example 10m]"
  IC50: "< 50 nM"
- COMPOUND: "COc1ccc([C@@H](Oc2cc(N3CCC4(CC3)CNC(C(=O)O)C4)nc(N)n2)C(F)(F)F)c(-n2ccc(C)n2)c1 (stereo partly drawn) [Example 10j]"
  IC50: "50 to 300 nM"

Shift focus to the following entry.
Field: IC50 (Recombinant human TPH1 (MBP tagged) (Homo sapiens, UniProt P17752)). Entry: Cc1ccn(-c2ccc(-c3ccc(C(=O)O)cc3)cc2[C@@H](Oc2cc(N3CCC4(CC3)CN[C@H](C(=O)O)C4)nc(N)n2)C(F)(F)F)n1 [Example 19g] < 50 nM

---

# TARGET: Recombinant human TPH1 (MBP tagged) (Homo sapiens)
# Construct: cloning full length human TPH1 cDNA in to a bacterial pMAL-c5E expression vector; made in house; host or cells: E. coli BL21 (DE3)
# Sequence (P17752 1-444): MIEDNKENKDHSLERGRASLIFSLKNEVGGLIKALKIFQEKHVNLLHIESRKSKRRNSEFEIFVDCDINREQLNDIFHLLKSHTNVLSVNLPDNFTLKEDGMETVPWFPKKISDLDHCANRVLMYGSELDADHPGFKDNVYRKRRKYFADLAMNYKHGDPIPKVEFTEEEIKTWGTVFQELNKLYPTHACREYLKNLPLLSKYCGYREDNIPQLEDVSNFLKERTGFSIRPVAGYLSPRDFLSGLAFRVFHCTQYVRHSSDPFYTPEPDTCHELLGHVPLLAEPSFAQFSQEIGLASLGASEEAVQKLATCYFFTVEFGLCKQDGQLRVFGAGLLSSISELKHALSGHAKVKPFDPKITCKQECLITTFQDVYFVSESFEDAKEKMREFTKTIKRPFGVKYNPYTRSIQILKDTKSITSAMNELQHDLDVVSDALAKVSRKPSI
# PROTOCOL: TPH1 in vitro inhibition assay (kinetic fluorescence)
# Assay type: biochemical
# REPORTED CONDITIONS: read-out: TPH1 Range (TPH1 inhibition IC50)
# Procedure: Recombinant human TPH1 (rTPH1 GenBank™ accession no. NP_004179) was expressed by cloning full length human TPH1 cDNA in to a bacterial pMAL-c5E expression vector to produce maltose-binding protein (MBP) TPH1 fusion proteins. […] TPH1 activities were measured in an assay containing 200 mM ammonium sulfate, 7 mM DTT, 50 μg/mL catalase, 25 μM ammonium iron sulfate, 50 mM MES, pH 7.1. […] Fluorescence reads are recorded in kinetic mode for 300 seconds (5 minutes). […]
# IC50 values compiled below

Take a look at these entries with their results.
- MOLECULE: "Cc1ccn(-c2cc(-c3ccc(F)c(F)c3)ccc2[C@@H](Oc2cc(N3CCC4(CC3)CN[C@H](C(=O)O)C4)nc(C)n2)C(F)(F)F)n1 [Example 29c]"
  TARGET: "Recombinant human TPH1 (MBP tagged) (Homo sapiens)"
  IC50: "50 to 300 nM"
- MOLECULE: "Cc1ccn(-c2cc(C(=O)OC3CCCC3)ccc2[C@@H](Oc2cc(N3CCC4(CC3)CN[C@H](C(=O)O)C4)nc(N)n2)C(F)(F)F)n1 [Example 18f]"
  TARGET: "Recombinant human TPH1 (MBP tagged) (Homo sapiens)"
  IC50: "< 50 nM"
- MOLECULE: "Cc1ccn(-c2cc(CO)ccc2[C@@H](Oc2cc(N3CCC4(CC3)CN[C@H](C(=O)O)C4)nc(N)n2)C(F)(F)F)n1"
  TARGET: "Recombinant human TPH1 (MBP tagged) (Homo sapiens)"
  IC50: "< 50 nM"
- MOLECULE: "Nc1nc(O[C@H](c2ccc(-c3ccccc3)cc2-c2ccccc2)C(F)(F)F)cc(N2CCC3(CC2)CN[C@H](C(=O)O)C3)n1 [Example 54g]"
  TARGET: "Recombinant human TPH1 (MBP tagged) (Homo sapiens)"
  IC50: "50 to 300 nM"
- MOLECULE: "Cc1ccn(-c2ccc(-c3ccc(Cl)cc3)cc2[C@@H](Oc2cc(N3CCC4(CC3)CN[C@H](C(=O)O)C4)nc(N)n2)C(F)(F)F)n1 [Example 19q]"
  TARGET: "Recombinant human TPH1 (MBP tagged) (Homo sapiens)"
  IC50: "< 50 nM"

Here is another molecule to look at.
So what does the record say about IC50 for Nc1nc(O[C@H](c2ccc(Cl)cc2-c2cccc(OC(F)(F)F)c2)C(F)(F)F)cc(N2CCC3(CC2)CN[C@H](C(=O)O)C3)n1 [Example 34bg] ? 50 to 300 nM

---

# TARGET: Recombinant human TPH1 (MBP tagged) (Homo sapiens)
# Construct: cloning full length human TPH1 cDNA in to a bacterial pMAL-c5E expression vector; made in house; host or cells: E. coli BL21 (DE3)
# Sequence (P17752 1-444): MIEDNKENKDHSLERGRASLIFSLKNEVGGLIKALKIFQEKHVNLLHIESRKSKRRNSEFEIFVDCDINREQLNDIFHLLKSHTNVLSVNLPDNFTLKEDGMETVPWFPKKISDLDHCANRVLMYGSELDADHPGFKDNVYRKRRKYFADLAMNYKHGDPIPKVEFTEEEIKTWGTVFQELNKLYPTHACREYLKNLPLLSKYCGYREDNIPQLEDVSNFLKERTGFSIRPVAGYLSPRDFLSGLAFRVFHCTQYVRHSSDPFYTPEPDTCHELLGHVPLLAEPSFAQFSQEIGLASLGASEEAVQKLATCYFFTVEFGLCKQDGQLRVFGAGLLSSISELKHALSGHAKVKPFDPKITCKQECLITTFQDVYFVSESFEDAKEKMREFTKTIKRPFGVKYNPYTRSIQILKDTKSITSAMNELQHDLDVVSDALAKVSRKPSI
# PROTOCOL: TPH1 in vitro inhibition assay (kinetic fluorescence)
# Assay type: biochemical
# REPORTED CONDITIONS: read-out: TPH1 Range (TPH1 inhibition IC50)
# Procedure: Recombinant human TPH1 (rTPH1 GenBank™ accession no. NP_004179) was expressed by cloning full length human TPH1 cDNA in to a bacterial pMAL-c5E expression vector to produce maltose-binding protein (MBP) TPH1 fusion proteins. […] TPH1 activities were measured in an assay containing 200 mM ammonium sulfate, 7 mM DTT, 50 μg/mL catalase, 25 μM ammonium iron sulfate, 50 mM MES, pH 7.1. […] Fluorescence reads are recorded in kinetic mode for 300 seconds (5 minutes). […]
pIC50: −log10 of the molar value.
Each item that follows carries a reported pIC50.

Examples from the recorded data:
- COMPOUND: "CCCOc1ccc(-c2ccc([C@@H](Oc3cc(N4CCC5(CC4)CN[C@H](C(=O)O)C5)nc(N)n3)C(F)(F)F)cc2)cc1F [Example 55dm]"
  pIC50: "6.52 to 7.30"
- COMPOUND: "Cc1ccn(-c2cc(-c3ccc(OC(F)(F)F)c(C)c3)ccc2[C@@H](Oc2cc(N3CCC4(CC3)CN[C@H](C(=O)O)C4)nc(N)n2)C(F)(F)F)n1"
  pIC50: "> 7.30"
- COMPOUND: "CCCCS(=O)(=O)c1cccc(-c2cc(Cl)ccc2[C@@H](Oc2cc(N3CCC4(CC3)CN[C@H](C(=O)O)C4)nc(N)n2)C(F)(F)F)c1 [Example 34l]"
  pIC50: "6.52 to 7.30"

State the recorded pIC50 for this entry: COc1ccc(-c2ccc([C@@H](Oc3cc(N4CCC5(CC4)CN[C@H](C(=O)O)C5)nc(N)n3)C(F)(F)F)cc2)cc1F [Example 55e] 6.52 to 7.30

# get_value(readout='pIC50', item= Nc1nc(O[C@H](c2ccc3ccccc3c2)C(F)(F)F)cc(N2CCC3(CC2)CN[C@H](C(=O)O)C3)n1 [Example 59b] ) 5.52 to 6.52

Record request: pIC50 value, item Nc1nc(O[C@H](c2ccc(-c3ccc(C(=O)O)c(O)c3)cc2)C(F)(F)F)cc(N2CCC3(CC2)CN[C@H](C(=O)O)C3)n1 [Example 55ag] 6.52 to 7.30
